System: KRas G12C mutant
Experiment: Ras GTP Binding Domain Inhibition Assay (Ras Superfamily Assay)
Conditions: 20 μM compound, with SOS
recordedMetric: KRas G12C mutant + SOS: % inh.

Worked cases, answers included:
COCC1CCN(c2nc(-c3nccn3C)nn3cc(-c4ccn(C(C)C)n4)c(-c4ccccc4)c23)C1.Cl (racemic) : A (A = 1-25% inhibition)
CO[C@H]1CC[C@@H](Nc2nc(-c3ccccn3)nn3cc(-c4ccn(C(C)C)n4)c(-c4ccccc4)c23)C1 (racemic) : 0 (0 = 0% inhibition)
CO[C@H]1CC[C@@H](Nc2nc(-c3ccccn3)nn3cc(-c4ccn(C(C)C)n4)c(C)c23)C1 (racemic) : 0 (0 = 0% inhibition)
COC1CCCN(c2nc(-c3ccccn3)nn3cc(-c4ccn(C(C)C)n4)c(C)c23)C1 (racemic) : 0 (0 = 0% inhibition)

Continue with the compound presented below.
Ask | Please state recorded KRas G12C mutant + SOS: % inh. (tested on KRas G12C mutant) of COc1cccc(-c2cn3nc(-c4nccn4C)nc(N[C@@H]4CC[C@@H](OC)C4)c3c2-c2ccccc2)c1Cl.Cl (racemic)
Reply | A (A = 1-25% inhibition)

* * *

Test system: KRas wild type
Experiment: Ras GTP Binding Domain Inhibition Assay (Ras Superfamily Assay)
Conditions: at 20 μM, with SOS
Excerpt: Biological Example 3: Ras GTP Binding Domain Inhibition Assay The assays described in Example 3 are collectively referred to as the “Ras Superfamily Assay” throughout this application. […] The small GTPases proteins: KRas wild type. KRas Q61H mutant, KRas G12C mutant, KRas G12D mutants, Rac-1, and Rho-A were expressed as His-tagged proteins. In addition, the Guanosine nucleotide Exchange Factor (GEF) Sos protein (residues 556-1049) was expressed as a His-tagged protein. […]
recordedMetric: KRas wild type + SOS: % inh.

Ask | Look up KRas wild type + SOS: % inh. for this compound: `CO[C@H]1C[C@H](Nc2nc(-c3nccn3C)nn3cc(-c4ccccc4)c(-c4ccccc4)c23)C1`
Reply | 0 (0 = 0% inhibition)

* * *

System: Erk1/2 phosphorylation
Assay: Erk1/2 Phosphorylation Assay (western blot), Panc-1
Type: cell-based, human
Details: at 10 μM, * = activation
Counter-ions that a name gives are not always drawn.
recordedMetric: % inh of Erk1/2 phosphorylation in Panc-1

Cc1c(-c2ccn(C3CC3)n2)cn2nc(-c3nccn3C)nc(Nc3cc(O)ccn3)c12 : A (1-25% inhibition)
COc1cc(Nc2nc(-c3nccn3C)nn3cc(-c4cccnc4)c(-c4cccnc4)c23)ncn1 : A* (1-25% activation)
Cc1c(-c2ccn(C)n2)cn2nc(-c3nccn3C)nc(Oc3cc(N)[nH]n3)c12 : A (1-25% inhibition)
CO[C@H]1C[C@H](Nc2nc(-c3nccn3C)nn3cc(-c4ccn(C)n4)c(C)c23)C1 [Compound 103, hydrochloride salt] : A* (1-25% activation)

* * *

Tested on: KRas G12D mutant
Assay: Ras GTP Binding Domain Inhibition Assay (Ras Superfamily Assay)
Settings: 20 μM compound, without SOS
recordedMetric: KRas G12D mutant: % inh.

Solved entries:
COCC1CCN(c2nc(-c3ccccn3)nn3cc(-c4ccn(C(C)C)n4)c(-c4ccccc4)c23)C1 (racemic) : A (A = 1-25% inhibition)
Cc1c(-c2ccn(C(C)C)n2)cn2nc(-c3ccccn3)nc(O)c12 : 0 (0 = 0% inhibition)
CO[C@H]1CC[C@@H](Nc2nc(-c3nccn3C)nn3cc(-c4ccn(C(C)C)n4)c(C)c23)C1 (racemic) : A (A = 1-25% inhibition)
CO[C@H]1C[C@H](Nc2nc(-c3nccn3C)nn3cc(-c4cccnc4)c(-c4cccnc4)c23)C1 : A (A = 1-25% inhibition)
CO[C@H]1CC[C@@H](Nc2nc(-c3ccccn3)nn3cc(-c4ccn(C(C)C)n4)c(-c4ccccc4)c23)C1 (racemic) : 0 (0 = 0% inhibition)

Ask | Param item = `Cn1ccnc1-c1nc(O)c2c(-c3ccccc3)ccn2n1` ; retrieve measured KRas G12D mutant: % inh..
Reply | A (A = 1-25% inhibition)

Ask | Can you share its KRas G12D mutant: % inh.? I mean this compound: `CO[C@H]1C[C@H](Nc2nc(-c3nccn3C)nn3cc(-c4ccncc4)c(C)c23)C1`
Reply | 0 (0 = 0% inhibition)

Ask | Fill blank: measured KRas G12D mutant: % inh. of the compound `COc1ncncc1Nc1nc(-c2nccn2C)nn2cc(-c3ccn(C(C)C)n3)c(C)c12` is ____.
Reply | A (A = 1-25% inhibition)

Ask | Given the entry COC[C@@H]1CC[C@@H]1CNc1nc(-c2nccn2C)nn2cc(-c3ccn(C(C)C)n3)c(-c3ccccc3)c12 (racemic) , report its measured KRas G12D mutant: % inh..
Reply | A (A = 1-25% inhibition)

* * *

Tested on: Erk1/2 phosphorylation
Experiment: Erk1/2 Phosphorylation Assay (western blot), Panc-1
Assay type: cell-based, human
Settings: at 10 μM, * = activation
recordedMetric: % inh of Erk1/2 phosphorylation in Panc-1

Completed entries (count: 5):
COC[C@@H]1CC[C@@H]1CNc1nc(-c2ccccn2)nn2cc(-c3ccn(C(C)C)n3)c(-c3ccccc3)c12 (racemic) [Compound 26] : D (85-100% inhibition)
COc1cccc(-c2cn3nc(-c4nccn4C)nc(N[C@@H]4CC[C@@H](OC)C4)c3c2-c2ccccc2)c1C (racemic) [Compound 270] : D (85-100% inhibition)
COc1ccnc(Nc2nc(-c3nccn3C)nn3cc(-c4ccn(C)n4)c(C(=O)NC4CC4)c23)c1 [Compound 175] : D* (85-100% activation)
COc1cc(Nc2nc(-c3nccn3C)nn3cc(-c4ccn(C(C)C)n4)c(C)c23)n[nH]1 [Compound 51] : 0 (0% inhibition)
COCCNC(=O)c1c(-c2ccn(C)n2)cn2nc(-c3nccn3C)nc(Nc3cc(OC)ccn3)c12 [Compound 176] : D* (85-100% activation)

Kindly consider the entry below.
Ask | # input compound: Cc1c(-c2ccn(C(C)C)n2)cn2nc(-c3nccn3C)nc(Nc3ncc[nH]3)c12 [Compound 125] ; wanted: its % inh of Erk1/2 phosphorylation in Panc-1
Reply | A (1-25% inhibition)

* * *

Target: Rac-1 (Homo sapiens, UniProt P63000)
Construct: made in house
Assay: Ras GTP Binding Domain Inhibition Assay (Ras Superfamily Assay)
Details: read-out: Rac-1: % inh.
# inhibition at 20 µM annotations

Worked set:
Cc1c(-c2ccn(C(C)C)n2)cn2nc(-c3nccn3C)nc(Nc3ccncc3)c12 : 0%
COc1cc(Nc2nc(-c3nccn3C)nn3cc(-c4ccn(C)n4)c(C)c23)ncc1-n1cnc(C)c1 : 76 to 100%
COC[C@@H]1CC[C@@H]1CNc1nc(-c2nccn2C)nn2cc(-c3ccn(C(C)C)n3)c(-c3ccccc3)c12 (racemic) : 0%
COc1cc(Nc2nc(-c3nccn3C)nn3cc(-c4ccn(C)n4)c(C)c23)n[nH]1 : 76 to 100%
Cc1c(-c2ccn(C)n2)cn2nc(-c3nccn3C)nc(Nc3cnccn3)c12 : 26 to 49%

Ask | Could you tell me which inhibition at 20 µM is on file for CO[C@H]1C[C@H](Nc2nc(-c3nccn3C)nn3cc(-c4ccc(CCN)cc4)c(-c4ccccc4)c23)C1.Cl [Compound 207, hydrochloride salt] ?
Reply | 1 to 25%

* * *

Tested on: Erk1/2 phosphorylation
Assay: Erk1/2 Phosphorylation Assay (western blot), Panc-1
Assay type: cell-based, human
Settings: at 10 μM, * = activation
recordedMetric: % inh of Erk1/2 phosphorylation in Panc-1

Please review the following examples before continuing.
COCCNC(=O)c1c(-c2ccn(C)n2)cn2nc(-c3nccn3C)nc(N[C@H]3CC[C@H](OC)C3)c12 (racemic) : D* (85-100% activation)
CO[C@H]1C[C@H](Nc2nc(-c3nccn3C)nn3cc(-c4cccnc4)c(-c4ccccn4)c23)C1 : 0 (0% inhibition)
COc1cccc(Nc2nc(-c3nccn3C)nn3cc(-c4ccn(C(C)C)n4)c(C)c23)n1 : 0 (0% inhibition)
Cc1c(-c2ccn(C)n2)cn2nc(-c3nccn3C)nc(Nc3cc(-n4ccnc4)ccn3)c12 : 0 (0% inhibition)
Cc1c(-c2ccn(C(C)C)n2)cn2nc(-c3nccn3C)nc(Nc3ccn(C4CC4)n3)c12 : D* (85-100% activation)

Alright, here's another compound for you.
Ask | For the compound shown here, `Cc1c(-c2ccn(C3CC3)n2)cn2nc(-c3nccn3C)nc(Nc3cc(OCC(F)(F)F)ccn3)c12` , give the reported % inh of Erk1/2 phosphorylation in Panc-1.
Reply | D* (85-100% activation)

* * *

Tested on: KRas G12D mutant
Assay: Ras GTP Binding Domain Inhibition Assay (Ras Superfamily Assay)
Details: 20 μM compound, with SOS
recordedMetric: KRas G12D mutant + SOS: % inh.

COc1cc(Nc2nc(-c3ccccn3)nn3cc(-c4ccn(C(C)C)n4)c(C)c23)ncn1 [Compound 13] : 0 (0 = 0% inhibition)
COc1cccc(-c2cn3nc(-c4nccn4C)nc(O)c3c2-c2ccccc2)c1Cl [Compound 28] : A (A = 1-25% inhibition)
CO[C@H]1CC[C@@H](Nc2nc(-c3nccn3C)nn3cc(-c4ccn(C(C)C)n4)c(C(C)C)c23)C1 (racemic) [Compound 36] : A (A = 1-25% inhibition)
COC[C@@H]1CC[C@@H]1CNc1nc(-c2nccn2C)nn2cc(-c3ccn(C(C)C)n3)c(C)c12 (racemic) [Compound 3] : 0 (0 = 0% inhibition)
CO[C@H]1C[C@H](Nc2nc(-c3nccn3C)nn3cc(-c4cccnc4)c(-c4ccccn4)c23)C1 [Compound 168] : A (A = 1-25% inhibition)
COc1cccc(Nc2nc(-c3nccn3C)nn3cc(-c4ccn(C(C)C)n4)c(-c4ccccc4)c23)n1 [Compound 23] : 0 (0 = 0% inhibition)

Ask | // map COc1ncc(Nc2nc(-c3nccn3C)nn3cc(-c4ccn(C(C)C)n4)c(C)c23)cn1 [Compound 80] to recorded KRas G12D mutant + SOS: % inh. (system: KRas G12D mutant)
Reply | 0 (0 = 0% inhibition)

Values compiled from patent US12459951B2.
